# Item smiles, melting point
measured = [
    ("COc1ccc(CCc2ccncc2)c2cc(C(F)F)nn12", "121 to 123 °C"),
    ("CNc1ccc(C(=O)Cc2c(Cl)cncc2Cl)c2cc(C(F)(F)F)nn12", "220 to 223 °C"),
    ("CN(C)c1ccc(C(=O)Cc2c(Cl)cncc2Cl)c2cc(C3CC3)nn12", "216 to 220 °C"),
    ("COc1ccc(C(=O)Cc2c(Cl)cncc2Cl)c2cc(C(F)F)nn12", "208 to 211 °C (dec.)"),
    ("COc1ccc(C(=O)Cc2ccncc2Cl)c2cc(C(F)F)nn12", "191 to 194 °C (dec.)"),
]
